The binders listed here are annotated with their Avg. IC50, human hemolysis assay (complete human sera).
# targetOrSystem: human C5 protein (human, UniProt P01031 19-673; P01031 678-1676)
# assayOverview: cell-based or functional assay
Starred links: 1 amine or outer side, 2 acyl side, 3 side chain; linkers in the order of their positions; H or OH if unused. Positions of bridges follow the written chain, without caps; N, C: chain ends. Non-standard residues stand in square brackets, D forms with d. Primed or numbered codes have the meaning given here. mXylyl(5) = bridging moiety between the two residues (meta-xylyl); mXylyl″ = bridging moiety between the two marked residues; mXylyl = bridging moiety between residues (mXylyl(i,j)); Trp(7-aza) = N[C@@H](Cc1c[nH]c2ncccc12)C(=O)O; pXylylene = c1cc(C[*:2])ccc1C[*:1]; Phg = N[C@H](C(=O)O)c1ccccc1; Tle = CC(C)(C)[C@H](N)C(=O)O; NMeS = CN[C@@H](CO)C(=O)O; Nva = CCC[C@H](N)C(=O)O
readoutType: Avg. IC50, human hemolysis assay (complete human sera) (nM)

>  <binder>
Ac-CVERFCDVY[Trp(7-aza)]EYP-NH2 (linker 1-6 via mXylyl″) [R3142]

>  <valueUnit>
nM

>  <censorSymbol>
=

>  <observedResult>
44.6

$$$$
>  <binder>
Ac-[Nva]C[Phg]T[Trp(7-aza)]EYPHC[Nva]-NH2 (linker 2-10 via pXylylene) [R3065]

>  <valueUnit>
nM

>  <censorSymbol>
=

>  <observedResult>
394

$$$$
>  <binder>
Ac-[Nva]C[Phg]T[Trp(7-aza)]EYSAC[Nva]-NH2 (linker 2-10 via mXylyl(5)) [R3084]

>  <valueUnit>
nM

>  <censorSymbol>
>

>  <observedResult>
100000

$$$$
>  <binder>
Ac-[Nva]C[Phg]T[Trp(7-aza)]EY[NMeS]C[Nva]-NH2 (linker 2-9 via mXylyl(5)) [R3080]

>  <valueUnit>
nM

>  <censorSymbol>
>

>  <observedResult>
50000

$$$$
>  <binder>
Ac-[Nva]CYEN[Tle]Y[Trp(7-aza)]EYP[Phg][Nva]C-NH2 (linker 2-14 via mXylyl) [R3019]

>  <valueUnit>
nM

>  <censorSymbol>
=

>  <observedResult>
1320

$$$$
